Provide the reported Complex 81 Quantic yield (%) of each item.
test: Photophysical properties of symmetrical europium TACN complexes 81; type: physicochemical; details: symmetrical europium TACN complex 81 made of three identical chromophores
The figure you give is taken to be in %; do not add the unit.

Entry under test: `COC(=O)c1cc(C#Cc2cc(OC)c(C)c(OC)c2)cc(CO)n1` . Its Complex 81 Quantic yield (%) was 11

Entry under test: `COC(=O)c1cc(C#Cc2ccccc2OC)cc(CO)n1` . Its Complex 81 Quantic yield (%) was 46

Entry under test: `COC(=O)c1cc(C#Cc2cncn2C)cc(CO)n1` . Its Complex 81 Quantic yield (%) was 54

Entry under test: `COC(=O)c1cc(C#Cc2ccc(OC)cc2)cc(CO)n1` . Its Complex 81 Quantic yield (%) was 52

Entry under test: `COC(=O)c1cc(C#Cc2ccsc2)cc(CO)n1` . Its Complex 81 Quantic yield (%) was 52

Entry under test: `COC(=O)c1cc(C#Cc2ccc(OC)cc2C)cc(CO)n1` . Its Complex 81 Quantic yield (%) was 76

* * *

Provide the reported Chromophore 78 λmax (nm) of each item.
experiment: UV spectra of the chromophores, maximum absorption wavelength; assay type: physicochemical; settings: UV spectrum of chromophore 78, carboxylate function protected in ester form
Respond with a number, then the unit of measure.

Entry under test: `COC(=O)c1cc(C#Cc2ccc(NC(=O)c3ccccc3)cc2)cc(CO)n1` . Its Chromophore 78 λmax (nm) was 323 nm

Entry under test: `COC(=O)c1cc(C#Cc2ccc(NC(=O)OC(C)(C)C)cc2)cc(CO)n1` . Its Chromophore 78 λmax (nm) was 326 nm

Entry under test: `COC(=O)c1cc(C#Cc2cccc3ccccc23)cc(CO)n1` . Its Chromophore 78 λmax (nm) was 329 nm

Entry under test: COC(=O)c1cc(C#Cc2ccccc2)cc(CO)n1 [reference compound] . Its Chromophore 78 λmax (nm) was 291 nm

Entry under test: `COC(=O)c1cc(C#Cc2ccc(OC)cc2OC)cc(CO)n1` . Its Chromophore 78 λmax (nm) was 319 nm

Entry under test: `COC(=O)c1cc(C#Cc2ccc(-c3ccccc3)cc2)cc(CO)n1` . Its Chromophore 78 λmax (nm) was 318 nm

Entry under test: `COC(=O)c1cc(C#Cc2c3ccccc3cc3ccccc23)cc(CO)n1` . Its Chromophore 78 λmax (nm) was 326 nm

Entry under test: `COC(=O)c1cc(C#Cc2ccc(NC(=O)c3cc(OC)c(OC)c(OC)c3)cc2)cc(CO)n1` . Its Chromophore 78 λmax (nm) was 324 nm

Entry under test: `COC(=O)c1cc(C#Cc2ccc(SC)cc2)cc(CO)n1` . Its Chromophore 78 λmax (nm) was 332 nm

Entry under test: `COC(=O)c1cc(C#Cc2cc(OC)c(C)c(OC)c2)cc(CO)n1` . Its Chromophore 78 λmax (nm) was 319 nm

Entry under test: `COC(=O)c1cc(C#Cc2ccc(OC)cc2)cc(CO)n1` . Its Chromophore 78 λmax (nm) was 320 nm

Entry under test: `COC(=O)c1cc(C#Cc2ccc(O)cc2)cc(CO)n1` . Its Chromophore 78 λmax (nm) was 324 nm

Entry under test: `COC(=O)c1cc(C#Cc2ccc(OCC(=O)OC(C)(C)C)cc2)cc(CO)n1` . Its Chromophore 78 λmax (nm) was 318 nm

Entry under test: `COC(=O)c1cc(C#Cc2cncn2C)cc(CO)n1` . Its Chromophore 78 λmax (nm) was 315 nm

Entry under test: `COC(=O)c1cc(C#Cc2ccsc2)cc(CO)n1` . Its Chromophore 78 λmax (nm) was 326 nm

Entry under test: `COC(=O)c1cc(C#Cc2ccccc2OC)cc(CO)n1` . Its Chromophore 78 λmax (nm) was 323 nm

Entry under test: `COC(=O)c1cc(C#Cc2ccc(OC)cc2C)cc(CO)n1` . Its Chromophore 78 λmax (nm) was 326 nm

Entry under test: `COC(=O)c1cc(C#Cc2ccc3cc(OC)ccc3c2)cc(CO)n1` . Its Chromophore 78 λmax (nm) was 335 nm

Entry under test: `COC(=O)c1cc(C#Cc2ccc(Oc3ccccc3)cc2)cc(CO)n1` . Its Chromophore 78 λmax (nm) was 315 nm

Entry under test: `COC(=O)c1cc(C#Cc2ccc(NC(C)=O)cc2C)cc(CO)n1` . Its Chromophore 78 λmax (nm) was 322 nm

* * *

Provide the reported Complex 81 λmax (nm) of each item.
assay: Photophysical properties of symmetrical europium TACN complexes 81; assay type: physicochemical; details: symmetrical europium TACN complex 81 made of three identical chromophores
The figure you give is taken to be in nm; do not add the unit.

Entry under test: `COC(=O)c1cc(C#Cc2ccc(OC)cc2)cc(CO)n1` . Its Complex 81 λmax (nm) was 333

Entry under test: `COC(=O)c1cc(C#Cc2ccsc2)cc(CO)n1` . Its Complex 81 λmax (nm) was 323

Entry under test: `COC(=O)c1cc(C#Cc2cncn2C)cc(CO)n1` . Its Complex 81 λmax (nm) was 333

Entry under test: `COC(=O)c1cc(C#Cc2ccc(OC)cc2C)cc(CO)n1` . Its Complex 81 λmax (nm) was 343

Entry under test: `COC(=O)c1cc(C#Cc2ccccc2OC)cc(CO)n1` . Its Complex 81 λmax (nm) was 336

Entry under test: `COC(=O)c1cc(C#Cc2cc(OC)c(C)c(OC)c2)cc(CO)n1` . Its Complex 81 λmax (nm) was 336

FYI, the data here is from patent US9296762B2.
